# EXPERIMENTAL_SYSTEM: WIZ protein (HiBit-WIZ fusion protein) (Homo sapiens, UniProt O95785+Q96SW2)
# Construct: expressed in transfected cells
# Sequence (O95785 whole entry, the tested form may be a part): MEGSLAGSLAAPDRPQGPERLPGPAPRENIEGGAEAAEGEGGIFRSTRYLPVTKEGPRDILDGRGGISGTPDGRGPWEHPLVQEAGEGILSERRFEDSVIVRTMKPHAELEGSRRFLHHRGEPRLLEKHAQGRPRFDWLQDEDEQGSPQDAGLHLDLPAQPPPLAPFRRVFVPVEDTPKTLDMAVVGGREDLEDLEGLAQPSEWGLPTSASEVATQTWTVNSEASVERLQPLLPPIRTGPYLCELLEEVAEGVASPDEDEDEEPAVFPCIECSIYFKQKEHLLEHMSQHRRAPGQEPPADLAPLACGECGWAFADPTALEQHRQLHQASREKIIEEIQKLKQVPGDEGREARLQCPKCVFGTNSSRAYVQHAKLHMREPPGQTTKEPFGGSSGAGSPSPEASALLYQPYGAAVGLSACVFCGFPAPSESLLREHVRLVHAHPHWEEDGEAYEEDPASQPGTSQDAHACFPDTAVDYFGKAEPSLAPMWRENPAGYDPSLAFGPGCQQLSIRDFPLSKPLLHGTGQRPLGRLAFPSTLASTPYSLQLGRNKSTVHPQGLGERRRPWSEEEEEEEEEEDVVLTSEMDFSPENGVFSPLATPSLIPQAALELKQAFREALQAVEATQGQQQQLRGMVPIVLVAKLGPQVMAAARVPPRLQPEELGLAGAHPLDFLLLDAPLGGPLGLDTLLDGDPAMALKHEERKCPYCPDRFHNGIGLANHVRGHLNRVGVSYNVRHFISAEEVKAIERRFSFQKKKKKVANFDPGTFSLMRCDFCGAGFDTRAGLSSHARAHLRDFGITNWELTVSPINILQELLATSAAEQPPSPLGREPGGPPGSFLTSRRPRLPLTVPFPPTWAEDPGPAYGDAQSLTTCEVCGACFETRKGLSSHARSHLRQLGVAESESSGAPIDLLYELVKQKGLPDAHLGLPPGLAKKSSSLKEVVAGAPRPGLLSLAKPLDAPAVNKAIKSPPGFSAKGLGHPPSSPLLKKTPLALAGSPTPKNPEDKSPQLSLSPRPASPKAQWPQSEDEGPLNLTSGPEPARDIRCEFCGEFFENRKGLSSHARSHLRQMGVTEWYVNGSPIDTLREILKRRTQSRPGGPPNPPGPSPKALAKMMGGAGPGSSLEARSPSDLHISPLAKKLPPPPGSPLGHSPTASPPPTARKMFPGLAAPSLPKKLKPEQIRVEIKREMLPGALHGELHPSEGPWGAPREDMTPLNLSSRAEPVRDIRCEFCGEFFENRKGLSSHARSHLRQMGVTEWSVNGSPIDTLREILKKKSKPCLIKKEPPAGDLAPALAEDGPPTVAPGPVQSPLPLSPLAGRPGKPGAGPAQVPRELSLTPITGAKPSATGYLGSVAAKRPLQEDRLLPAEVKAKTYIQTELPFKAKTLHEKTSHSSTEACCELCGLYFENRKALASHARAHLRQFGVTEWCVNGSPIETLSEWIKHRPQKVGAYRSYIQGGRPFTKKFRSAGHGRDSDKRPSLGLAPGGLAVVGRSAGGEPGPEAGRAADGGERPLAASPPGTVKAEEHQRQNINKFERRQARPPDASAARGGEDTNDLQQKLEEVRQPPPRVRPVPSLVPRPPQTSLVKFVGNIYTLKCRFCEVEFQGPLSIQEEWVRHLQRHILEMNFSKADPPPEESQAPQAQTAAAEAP
# Sequence (Q96SW2 whole entry, the tested form may be a part): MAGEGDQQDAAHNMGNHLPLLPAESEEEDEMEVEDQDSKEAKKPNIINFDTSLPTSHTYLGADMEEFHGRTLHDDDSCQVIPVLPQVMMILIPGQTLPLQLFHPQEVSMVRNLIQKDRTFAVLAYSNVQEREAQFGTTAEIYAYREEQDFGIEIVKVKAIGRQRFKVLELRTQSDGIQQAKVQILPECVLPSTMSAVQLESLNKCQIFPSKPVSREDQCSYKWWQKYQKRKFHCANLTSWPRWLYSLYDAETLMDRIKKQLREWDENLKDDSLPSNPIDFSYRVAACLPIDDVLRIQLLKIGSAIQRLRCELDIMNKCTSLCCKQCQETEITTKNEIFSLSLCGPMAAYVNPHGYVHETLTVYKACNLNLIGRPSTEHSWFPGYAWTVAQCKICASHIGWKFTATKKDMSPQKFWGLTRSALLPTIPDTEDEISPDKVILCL
# Sequence (Q16531 whole entry partner, the tested form may be a part): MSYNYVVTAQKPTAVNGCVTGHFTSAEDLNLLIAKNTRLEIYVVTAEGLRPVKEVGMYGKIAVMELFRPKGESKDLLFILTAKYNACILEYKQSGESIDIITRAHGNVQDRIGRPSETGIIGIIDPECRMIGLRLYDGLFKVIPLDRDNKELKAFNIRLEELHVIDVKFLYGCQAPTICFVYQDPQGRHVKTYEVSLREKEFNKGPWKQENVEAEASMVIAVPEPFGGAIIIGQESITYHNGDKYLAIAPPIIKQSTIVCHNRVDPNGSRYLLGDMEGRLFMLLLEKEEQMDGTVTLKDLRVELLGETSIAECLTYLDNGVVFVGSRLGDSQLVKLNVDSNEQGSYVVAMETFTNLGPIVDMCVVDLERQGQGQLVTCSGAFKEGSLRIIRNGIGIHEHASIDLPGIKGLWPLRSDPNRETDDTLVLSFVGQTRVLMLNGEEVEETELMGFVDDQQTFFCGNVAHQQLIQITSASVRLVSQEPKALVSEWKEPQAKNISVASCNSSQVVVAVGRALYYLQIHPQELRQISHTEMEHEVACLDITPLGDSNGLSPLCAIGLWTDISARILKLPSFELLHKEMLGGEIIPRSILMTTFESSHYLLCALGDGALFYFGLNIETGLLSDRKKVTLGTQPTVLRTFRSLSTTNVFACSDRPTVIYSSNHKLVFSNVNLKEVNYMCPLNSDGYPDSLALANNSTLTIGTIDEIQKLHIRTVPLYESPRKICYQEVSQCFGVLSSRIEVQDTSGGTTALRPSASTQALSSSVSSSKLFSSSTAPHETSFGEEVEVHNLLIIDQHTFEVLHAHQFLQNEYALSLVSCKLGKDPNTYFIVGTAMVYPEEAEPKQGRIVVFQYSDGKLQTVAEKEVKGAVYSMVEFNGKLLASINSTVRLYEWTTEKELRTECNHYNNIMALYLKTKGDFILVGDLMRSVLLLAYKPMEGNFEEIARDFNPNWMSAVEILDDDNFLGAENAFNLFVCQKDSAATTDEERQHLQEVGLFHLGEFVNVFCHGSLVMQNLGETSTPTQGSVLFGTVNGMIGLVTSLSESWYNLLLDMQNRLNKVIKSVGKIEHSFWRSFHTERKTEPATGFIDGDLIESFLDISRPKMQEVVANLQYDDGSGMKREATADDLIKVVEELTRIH
# TEST_DETAILS: Quantification of WIZ protein levels in HiBit tag fusion protein assay (WIZ HiBit assay in 293T cells)
# Assay type: cell-based
# CONDITION_CONTEXT: HEK-293T, 100 − Amax, at 25 uM; 293T cells; read-out: % degradation of WIZ (100 − Amax)
Would you mind classing the entries by Dmax at 25 µM? Ranges: low range (below 70%), mid range (70% to below 80%), high range (80% or more)

Field: example entries. Status: answers known.
| COMPOUND | EXPERIMENTAL_SYSTEM | CLASS_LABEL |
| --- | --- | --- |
| O=C1CCN(c2cnn3ccc(CC4CCN(Cc5ccc(OC(F)(F)F)cc5)CC4)cc23)C(=O)N1 [Example 56] | WIZ protein (HiBit-WIZ fusion protein) (Homo sapiens, UniProt O95785+Q96SW2) | low range |
| O=C1CCN(c2cnn3ccc(CC4CCN(C(=O)C5(C(F)(F)F)CC5)CC4)cc23)C(=O)N1 [Example 100] | WIZ protein (HiBit-WIZ fusion protein) (Homo sapiens, UniProt O95785+Q96SW2) | low range |
| O=C1CCN(c2cnn3ccc(CN4CCN(CC(F)(F)C(F)F)CC4)cc23)C(=O)N1 [Example 173] | WIZ protein (HiBit-WIZ fusion protein) (Homo sapiens, UniProt O95785+Q96SW2) | low range |
| O=C1CCN(c2cnn3ccc(CC4CCN(CC5CCCOC5)CC4)cc23)C(=O)N1 (stereo not drawn) [Example 7] | WIZ protein (HiBit-WIZ fusion protein) (Homo sapiens, UniProt O95785+Q96SW2) | high range |
| CC(c1ccccc1)N1CCC(Cc2ccn3ncc(N4CCC(=O)NC4=O)c3c2)CC1 (stereo not drawn) [Example 26] | WIZ protein (HiBit-WIZ fusion protein) (Homo sapiens, UniProt O95785+Q96SW2) | mid range |
| Cc1ccccc1CN1CCN(Cc2ccn3ncc(N4CCC(=O)NC4=O)c3c2)CC1 [Example 167] | WIZ protein (HiBit-WIZ fusion protein) (Homo sapiens, UniProt O95785+Q96SW2) | low range |
| CN1CCCC(Cc2ccn3ncc(N4CCC(=O)NC4=O)c3c2)CC1 (stereo not drawn) [Example 271] | WIZ protein (HiBit-WIZ fusion protein) (Homo sapiens, UniProt O95785+Q96SW2) | low range |
| C[C@H]1CN(Cc2ccn3ncc(N4CCC(=O)NC4=O)c3c2)CCN1CC1CCC(F)(F)CC1 [Example 207] | WIZ protein (HiBit-WIZ fusion protein) (Homo sapiens, UniProt O95785+Q96SW2) | high range |

Query: Which class does O=C1CCN(c2cnn3ccc(CC4CCN(C(=O)Oc5ccccc5)CC4)cc23)C(=O)N1 [Example 94] fall in?
Reply: low range

Query: Which class does C[C@H]1CN(Cc2ccn3ncc(N4CCC(=O)NC4=O)c3c2)CCN1C(=O)C1CC1 [Example 340] fall in?
Reply: low range

Query: Which class does C[C@H]1CN(Cc2ccn3ncc(N4CCC(=O)NC4=O)c3c2)CCN1CC1CCCCCC1 [Example 198] fall in?
Reply: high range

Query: Which class does O=C1CCN(c2cnn3ccc(CC4CCN(C(=O)CCC5CCCCC5)CC4)cc23)C(=O)N1 [Example 103] fall in?
Reply: low range

Query: Which class does CCN1CCC(Cc2ccn3ncc(N4CCC(=O)NC4=O)c3c2)CC1 [Example 24] fall in?
Reply: mid range
